measured_target: S. aureus DNA gyrase (Staphylococcus aureus, UniProt P0A0K8)
Sequence (P0A0K8 whole entry): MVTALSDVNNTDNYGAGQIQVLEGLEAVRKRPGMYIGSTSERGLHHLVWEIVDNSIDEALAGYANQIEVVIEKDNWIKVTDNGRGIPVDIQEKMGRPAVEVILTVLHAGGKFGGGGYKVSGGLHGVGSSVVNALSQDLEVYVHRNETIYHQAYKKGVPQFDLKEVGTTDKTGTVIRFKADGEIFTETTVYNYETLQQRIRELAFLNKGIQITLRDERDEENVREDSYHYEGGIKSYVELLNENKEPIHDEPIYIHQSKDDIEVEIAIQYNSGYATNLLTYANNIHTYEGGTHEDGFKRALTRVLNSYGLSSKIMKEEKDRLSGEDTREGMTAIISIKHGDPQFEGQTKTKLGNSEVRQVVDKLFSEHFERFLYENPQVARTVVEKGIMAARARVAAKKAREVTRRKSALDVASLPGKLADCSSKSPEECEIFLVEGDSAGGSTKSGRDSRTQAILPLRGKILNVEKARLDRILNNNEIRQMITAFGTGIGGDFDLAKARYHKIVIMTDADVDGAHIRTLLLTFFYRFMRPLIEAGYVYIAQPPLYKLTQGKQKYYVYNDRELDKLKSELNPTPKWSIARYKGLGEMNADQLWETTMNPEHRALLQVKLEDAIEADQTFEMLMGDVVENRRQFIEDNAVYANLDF
Sequence (P20831 whole entry partner): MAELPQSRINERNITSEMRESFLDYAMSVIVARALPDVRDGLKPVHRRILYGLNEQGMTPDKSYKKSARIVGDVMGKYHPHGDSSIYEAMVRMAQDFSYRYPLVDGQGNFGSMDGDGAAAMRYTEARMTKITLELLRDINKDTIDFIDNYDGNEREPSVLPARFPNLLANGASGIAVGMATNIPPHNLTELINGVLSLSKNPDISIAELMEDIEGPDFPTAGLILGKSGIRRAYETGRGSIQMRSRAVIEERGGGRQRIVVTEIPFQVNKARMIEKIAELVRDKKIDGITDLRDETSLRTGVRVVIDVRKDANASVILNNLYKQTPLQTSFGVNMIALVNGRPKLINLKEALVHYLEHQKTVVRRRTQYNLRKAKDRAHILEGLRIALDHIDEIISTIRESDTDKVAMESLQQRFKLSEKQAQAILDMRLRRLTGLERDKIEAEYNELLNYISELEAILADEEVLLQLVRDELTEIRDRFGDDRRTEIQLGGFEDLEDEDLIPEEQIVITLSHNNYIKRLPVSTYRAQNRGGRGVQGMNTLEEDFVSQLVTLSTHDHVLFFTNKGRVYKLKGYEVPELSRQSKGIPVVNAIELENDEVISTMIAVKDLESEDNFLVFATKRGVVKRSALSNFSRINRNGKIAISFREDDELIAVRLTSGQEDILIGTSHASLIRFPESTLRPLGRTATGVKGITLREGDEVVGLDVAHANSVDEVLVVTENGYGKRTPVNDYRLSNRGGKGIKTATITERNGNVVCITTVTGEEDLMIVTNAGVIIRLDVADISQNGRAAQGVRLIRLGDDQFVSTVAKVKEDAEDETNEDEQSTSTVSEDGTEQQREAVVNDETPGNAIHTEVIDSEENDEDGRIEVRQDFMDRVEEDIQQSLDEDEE
assay_metric: IC50 (µM)
Reply with just the number (in µM).

Form: Entry = Cc1[nH]c(C(=O)Nc2ccc(C(=O)NCC(=O)O)cc2N2CC[C@H](N)C2)c(Cl)c1Cl [Compound 10b] | System = S. aureus DNA gyrase (Staphylococcus aureus, UniProt P0A0K8) | IC50 = ____ 0.112

----------
System: A. baumannii ATCC 17978
For each of the molecules below, state its MIC.

Form: Entry = COC(=O)c1ccc(NC(=O)c2[nH]c(C)c(Cl)c2Cl)c(N2CCCC(CN)C2)c1.Cl (stereo not shown) [Compound 19i] | System = A. baumannii ATCC 17978 | MIC = ____ 8 µg/mL

How about this molecule: Cc1[nH]c(C(=O)Nc2ccc(C(=O)O)cc2N2CCNCC2)c(Cl)c1Cl.Cl [Compound 20a] > 64 µg/mL

How about this molecule: Cc1[nH]c(C(=O)Nc2ccc(C(=O)O)cc2N2CCN(c3ccccc3)CC2)c(Cl)c1Cl [Compound 18h] > 64 µg/mL

How about this molecule: Cc1[nH]c(C(=O)Nc2ccc(C(=O)O)cc2N2CCC[C@H](N)C2)c(Cl)c1Cl.Cl [Compound 20c] > 64 µg/mL

How about this molecule: Cc1[nH]c(C(=O)Nc2ccc(-c3n[nH]c(=O)o3)cc2N2CCOCC2)c(Cl)c1Cl [Compound 22e] > 64 µg/mL

How about this molecule: Cc1[nH]c(C(=O)Nc2ccc(-c3n[nH]c(=O)o3)cc2OCc2ccccc2)c(Cl)c1Cl > 32 µg/mL

How about this molecule: Cc1[nH]c(C(=O)Nc2ccc(-c3n[nH]c(=O)o3)cc2NC2CCNCC2)c(Cl)c1Cl.Cl [Compound 23d] > 64 µg/mL

How about this molecule: Cc1[nH]c(C(=O)Nc2ccc(C(=O)O)cc2NC2CCNCC2)c(Cl)c1Cl.Cl [Compound 20d] > 64 µg/mL

How about this molecule: Cc1[nH]c(C(=O)Nc2ccc(-c3n[nH]c(=O)o3)cc2N2CCOC(C)C2)c(Cl)c1Cl (stereo not shown) [Compound 22f] > 64 µg/mL

How about this molecule: Cc1[nH]c(C(=O)Nc2ccc(-c3n[nH]c(=O)o3)cc2N2CCNCC2)c(Cl)c1Cl.Cl [Compound 23a] > 64 µg/mL

----------
measured_target: E. coli topoisomerase IV (Escherichia coli, UniProt P20083)
Sequence (P20083 whole entry): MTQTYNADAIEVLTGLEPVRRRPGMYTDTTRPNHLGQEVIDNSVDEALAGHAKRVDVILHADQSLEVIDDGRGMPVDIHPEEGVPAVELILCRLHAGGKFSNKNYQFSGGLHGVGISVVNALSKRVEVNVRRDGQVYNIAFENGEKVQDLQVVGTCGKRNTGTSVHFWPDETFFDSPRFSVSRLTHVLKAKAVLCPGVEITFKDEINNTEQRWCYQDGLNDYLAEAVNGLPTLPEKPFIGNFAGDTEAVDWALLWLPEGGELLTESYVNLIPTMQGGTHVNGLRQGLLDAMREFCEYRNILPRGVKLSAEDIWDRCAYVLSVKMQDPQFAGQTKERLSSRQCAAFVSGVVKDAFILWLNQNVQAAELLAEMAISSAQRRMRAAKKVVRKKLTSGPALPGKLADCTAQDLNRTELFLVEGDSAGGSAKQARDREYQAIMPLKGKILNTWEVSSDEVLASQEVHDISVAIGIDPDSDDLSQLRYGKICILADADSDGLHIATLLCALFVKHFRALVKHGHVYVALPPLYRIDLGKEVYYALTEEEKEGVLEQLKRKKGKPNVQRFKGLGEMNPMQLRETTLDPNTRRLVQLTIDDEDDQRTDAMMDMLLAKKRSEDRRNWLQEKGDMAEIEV
Sequence (P0AFI2 whole entry partner): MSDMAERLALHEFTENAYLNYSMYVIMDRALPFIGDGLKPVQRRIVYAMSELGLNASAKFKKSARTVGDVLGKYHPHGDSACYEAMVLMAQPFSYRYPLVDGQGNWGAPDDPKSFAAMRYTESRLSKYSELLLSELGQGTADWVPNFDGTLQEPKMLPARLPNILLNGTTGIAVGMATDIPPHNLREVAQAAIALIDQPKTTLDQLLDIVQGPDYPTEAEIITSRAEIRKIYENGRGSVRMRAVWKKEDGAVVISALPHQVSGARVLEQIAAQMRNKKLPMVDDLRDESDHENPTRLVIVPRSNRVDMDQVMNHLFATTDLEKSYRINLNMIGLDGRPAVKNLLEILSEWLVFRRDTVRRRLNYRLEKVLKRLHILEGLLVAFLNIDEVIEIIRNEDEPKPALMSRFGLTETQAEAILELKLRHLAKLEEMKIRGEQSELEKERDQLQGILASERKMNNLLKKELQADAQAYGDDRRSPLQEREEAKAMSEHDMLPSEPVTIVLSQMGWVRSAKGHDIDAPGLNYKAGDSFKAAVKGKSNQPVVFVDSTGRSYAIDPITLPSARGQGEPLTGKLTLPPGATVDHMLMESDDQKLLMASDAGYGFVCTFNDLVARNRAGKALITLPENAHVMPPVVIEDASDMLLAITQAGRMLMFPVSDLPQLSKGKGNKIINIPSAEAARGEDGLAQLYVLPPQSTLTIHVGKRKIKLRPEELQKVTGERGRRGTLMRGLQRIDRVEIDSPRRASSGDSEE
experimental_protocol: topoisomerase IV relaxation plate assay
Type: biochemical
assay_metric: IC50 (nM)
Reply with just the number (in nM).

Requested field: IC50. Item: Cc1[nH]c(C(=O)Nc2ccc(C(=O)NCC(=O)O)cc2N2CC[C@H](N)C2)c(Cl)c1Cl [Compound 10b] 958

How about this compound: Cc1[nH]c(C(=O)Nc2ccc(-c3n[nH]c(=O)o3)cc2NC2CCNCC2)c(Cl)c1Cl.Cl [Compound 23d] 1260

How about this compound: COC(=O)c1ccc(NC(=O)c2[nH]c(C)c(Cl)c2Cl)c(N2CCCC(CN)C2)c1.Cl (stereo not drawn) [Compound 19i] 533

How about this compound: Cc1[nH]c(C(=O)Nc2ccc(-c3n[nH]c(=O)o3)cc2N2CCC[C@H](N)C2)c(Cl)c1Cl.Cl [Compound 23c] 448

How about this compound: Cc1[nH]c(C(=O)Nc2ccc(C(=O)O)cc2N2CCCC(CN)C2)c(Cl)c1Cl.Cl (stereo not drawn) [Compound 20i] 143

How about this compound: Cc1[nH]c(C(=O)Nc2ccc(-c3n[nH]c(=O)o3)cc2N2CCOCC2)c(Cl)c1Cl [Compound 22e] 1230

All values here come from paper PMC11378028.
